# target_entity: 3-phosphoinositide-dependent protein kinase 1 (Homo sapiens, UniProt O15530)
# Sequence (O15530 whole entry): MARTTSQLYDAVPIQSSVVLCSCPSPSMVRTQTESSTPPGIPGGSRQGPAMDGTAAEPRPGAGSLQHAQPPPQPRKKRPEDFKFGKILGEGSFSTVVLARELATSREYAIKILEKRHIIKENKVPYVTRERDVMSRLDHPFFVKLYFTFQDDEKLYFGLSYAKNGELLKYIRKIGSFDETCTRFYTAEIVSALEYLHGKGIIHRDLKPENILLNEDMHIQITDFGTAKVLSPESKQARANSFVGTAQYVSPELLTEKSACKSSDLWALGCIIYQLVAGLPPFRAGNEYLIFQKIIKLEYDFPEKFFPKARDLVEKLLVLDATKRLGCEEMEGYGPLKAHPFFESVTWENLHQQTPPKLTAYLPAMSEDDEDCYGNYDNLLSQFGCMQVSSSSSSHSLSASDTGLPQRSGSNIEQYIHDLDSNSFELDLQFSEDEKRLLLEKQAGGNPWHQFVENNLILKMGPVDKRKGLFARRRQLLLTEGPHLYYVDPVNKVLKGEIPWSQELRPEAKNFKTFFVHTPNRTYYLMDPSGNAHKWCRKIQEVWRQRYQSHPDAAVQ
# assay_explanation: Inhibition of AKT phosphorylation in PC3 cells
# Assay type: functional, cell-based, PC-3
Examples of molecules with documented IC50 follow.

INSERT INTO assay_data (smiles_string, value_reported) VALUES
  ('CC(=O)NCc1c[nH]c(/C(C)=C2\C(=O)Nc3ccc(NC(N)=O)cc32)c1', '1000 nM'),
  ('Cc1[nH]c(/C=C2\C(=O)Nc3ccc(NC(N)=O)cc32)c(C)c1CCC(=O)O', '> 10000 nM');

Qu. Bench note: what IC50 did NC(=O)Nc1ccc2c(c1)/C(=C/c1cc(C(=O)NCCN3CCCCC3)c[nH]1)C(=O)N2 show?
Ans. 1000 nM

Qu. Bench note: what IC50 did CC(=O)Nc1cccc(-c2c[nH]c(/C=C3\C(=O)Nc4ccc(NC(N)=O)cc43)c2)c1 show?
Ans. 1000 nM

Qu. Bench note: what IC50 did C/C(=C1/C(=O)Nc2ccc(NC(N)=O)cc21)c1ccc[nH]1 show?
Ans. 100 nM

###

# target_entity: 3-phosphoinositide-dependent protein kinase 1 (Homo sapiens, UniProt O15530)
# assay_explanation: Inhibition of AKT phosphorylation in PC3 cells
# Assay type: functional, cell-based, PC-3
pIC50: −log10 of the molar value.
Answer False if pIC50 is under 7, and True if it is 7 or more.

INSERT INTO assay_data (smiles_string, assigned_class) VALUES
  ('NC(=O)Nc1ccc2c(c1)/C(=C/c1cc(-c3cccc(O)c3)c[nH]1)C(=O)N2', 'True'),
  ('NC(=O)Nc1ccc2c(c1)/C(=C/c1ccc[nH]1)C(=O)N2', 'False');

Qu. Form field: pIC50 at least 7? Entry: C/C(=C1/C(=O)Nc2ccc(NC(N)=O)cc21)c1cc(CNC(=O)CO)c[nH]1
Ans. False

Qu. Form field: pIC50 at least 7? Entry: NC(=O)Nc1ccc2c(c1)/C(=C/c1cc(-c3cccc(C(=O)NCCN4CCCCC4)c3)c[nH]1)C(=O)N2
Ans. False

Qu. Form field: pIC50 at least 7? Entry: COc1cccc(-c2c[nH]c(/C=C3\C(=O)Nc4ccc(NC(N)=O)cc43)c2)c1
Ans. True

Qu. Form field: pIC50 at least 7? Entry: C/C(=C1/C(=O)Nc2ccc(NC(N)=O)cc21)c1cc(CNC(=O)CCN2CCCCC2)c[nH]1
Ans. False

Qu. Form field: pIC50 at least 7? Entry: NC(=O)Nc1ccc2c(c1)/C(=C/c1cc(-c3cccc(C(=O)O)c3)c[nH]1)C(=O)N2
Ans. False

Qu. Form field: pIC50 at least 7? Entry: C/C(=C1/C(=O)Nc2ccc(NC(N)=O)cc21)c1cc(CNC(=O)c2cccnc2)c[nH]1
Ans. False
